Target: the molecule itself
Assay: SEC; analytical gel filtration on Superdex 200 of each MBP-fused variant alone, as described in ref. 19
Endpoint Label: stoichiometry N
Answer as a number with no unit attached.

Protein	stoichiometry N
MBP-TtProDH ΔAB V36D (domain or fragment, Thermus thermophilus, Proline dehydrogenase (TtProDH), Thermus thermophilus, lacking helices αA and αB, with V36D in helix αC; C-terminal tail of TtProDH (part of helix α8), residues 288-309 as printed; lacking in a part of the preparation; The preparation is a mixture: partially intact and partially cleaved before R288 (two subunit masses, 73.0 and 75.5 kDa); Mainly dimers by SEC, tetramers and dimers by …) KGLVRRYDAGETLEEALKAAEALEREGVHAILDLLGEMVRTEEEARAFQRGLLELVWALAGKPWPKYISLKLTQLGLDLSEDLALALLREVLREAEPRGVFVRLDMEDSPRVEATLRLYRALREEGFSQVGIVLQSYLYRTEKDLLDLLPYRPNLRLVKGAYREPKEVAFPDKRLIDAEYLHLGKLALKEGLYVAFATHDPRIIAELKRYTEAMGIPRSRFEFQFLYGVRPEEQRRLAREGYTVRAYVPYGRDWYPYLTRRIAERPENLLLVLRSLVSGLE	2

# input Which stoichiometry N is listed for MBP-TtProDH ΔAB V32D (domain or fragment, Thermus thermophilus, Proline dehydrogenase (TtProDH), Thermus thermophilus, lacking helices αA and αB, with V32D in helix αC; C-terminal tail of TtProDH (part of helix α8), residues 288-309 as printed; lacking in a part of the preparation; The preparation is a mixture: partially intact and partially cleaved before R288 (two subunit masses, 73.0 and 75.5 kDa); Mainly dimers by SEC, tetramers and dimers by …) KGLDRRYVAGETLEEALKAAEALEREGVHAILDLLGEMVRTEEEARAFQRGLLELVWALAGKPWPKYISLKLTQLGLDLSEDLALALLREVLREAEPRGVFVRLDMEDSPRVEATLRLYRALREEGFSQVGIVLQSYLYRTEKDLLDLLPYRPNLRLVKGAYREPKEVAFPDKRLIDAEYLHLGKLALKEGLYVAFATHDPRIIAELKRYTEAMGIPRSRFEFQFLYGVRPEEQRRLAREGYTVRAYVPYGRDWYPYLTRRIAERPENLLLVLRSLVSGLE ?
# output 2
